species on record: Homo sapiens; experiment: Selectivity ratio of Ki for human NPFF2 receptor to Ki for human NPFF1 receptor
Assign class by Ratio Ki: not lower than 4 means fulfilled; lower than 4 means not fulfilled.

The following molecules have reported results that may help.
- N=C(N)NCC(=O)NCC1(Nc2ccccc2)CCN(Cc2ccc3ccccc3c2)CC1: not fulfilled
- N=C(N)NCCC(=O)NCC1(Nc2ccccc2)CCN(Cc2ccccc2)CC1: fulfilled
- COc1cccc(NC2(CNC(=O)CNC(=N)N)CCN(Cc3ccccc3)CC2)c1: fulfilled

Can N=C(N)NCC(=O)NCC1(Cc2ccc(-c3ccccc3)cc2)CCN(Cc2ccccc2)CC1 be said to have Ratio Ki at or above 4?
not fulfilled

Please give the result for N=C(N)NCC(=O)NCC1(Nc2ccc(Cl)c(Cl)c2)CCN(Cc2ccccc2)CC1 too.
not fulfilled

Please give the result for COC(=O)c1ccc(CN2CCC(CNC(=O)CNC(=N)N)(Nc3ccccc3)CC2)cc1 too.
fulfilled

Please give the result for N=C(N)NCC(=O)NCC1(CCc2ccccc2)CCN(Cc2ccccc2)CC1 too.
not fulfilled

Please give the result for N=C(N)NCC(=O)NCC1(c2ccccc2)CCN(Cc2ccccc2)CC1 too.
fulfilled
